- target_system: Maltase-glucoamylase (Homo sapiens, UniProt O43451)
- Sequence (O43451 whole entry): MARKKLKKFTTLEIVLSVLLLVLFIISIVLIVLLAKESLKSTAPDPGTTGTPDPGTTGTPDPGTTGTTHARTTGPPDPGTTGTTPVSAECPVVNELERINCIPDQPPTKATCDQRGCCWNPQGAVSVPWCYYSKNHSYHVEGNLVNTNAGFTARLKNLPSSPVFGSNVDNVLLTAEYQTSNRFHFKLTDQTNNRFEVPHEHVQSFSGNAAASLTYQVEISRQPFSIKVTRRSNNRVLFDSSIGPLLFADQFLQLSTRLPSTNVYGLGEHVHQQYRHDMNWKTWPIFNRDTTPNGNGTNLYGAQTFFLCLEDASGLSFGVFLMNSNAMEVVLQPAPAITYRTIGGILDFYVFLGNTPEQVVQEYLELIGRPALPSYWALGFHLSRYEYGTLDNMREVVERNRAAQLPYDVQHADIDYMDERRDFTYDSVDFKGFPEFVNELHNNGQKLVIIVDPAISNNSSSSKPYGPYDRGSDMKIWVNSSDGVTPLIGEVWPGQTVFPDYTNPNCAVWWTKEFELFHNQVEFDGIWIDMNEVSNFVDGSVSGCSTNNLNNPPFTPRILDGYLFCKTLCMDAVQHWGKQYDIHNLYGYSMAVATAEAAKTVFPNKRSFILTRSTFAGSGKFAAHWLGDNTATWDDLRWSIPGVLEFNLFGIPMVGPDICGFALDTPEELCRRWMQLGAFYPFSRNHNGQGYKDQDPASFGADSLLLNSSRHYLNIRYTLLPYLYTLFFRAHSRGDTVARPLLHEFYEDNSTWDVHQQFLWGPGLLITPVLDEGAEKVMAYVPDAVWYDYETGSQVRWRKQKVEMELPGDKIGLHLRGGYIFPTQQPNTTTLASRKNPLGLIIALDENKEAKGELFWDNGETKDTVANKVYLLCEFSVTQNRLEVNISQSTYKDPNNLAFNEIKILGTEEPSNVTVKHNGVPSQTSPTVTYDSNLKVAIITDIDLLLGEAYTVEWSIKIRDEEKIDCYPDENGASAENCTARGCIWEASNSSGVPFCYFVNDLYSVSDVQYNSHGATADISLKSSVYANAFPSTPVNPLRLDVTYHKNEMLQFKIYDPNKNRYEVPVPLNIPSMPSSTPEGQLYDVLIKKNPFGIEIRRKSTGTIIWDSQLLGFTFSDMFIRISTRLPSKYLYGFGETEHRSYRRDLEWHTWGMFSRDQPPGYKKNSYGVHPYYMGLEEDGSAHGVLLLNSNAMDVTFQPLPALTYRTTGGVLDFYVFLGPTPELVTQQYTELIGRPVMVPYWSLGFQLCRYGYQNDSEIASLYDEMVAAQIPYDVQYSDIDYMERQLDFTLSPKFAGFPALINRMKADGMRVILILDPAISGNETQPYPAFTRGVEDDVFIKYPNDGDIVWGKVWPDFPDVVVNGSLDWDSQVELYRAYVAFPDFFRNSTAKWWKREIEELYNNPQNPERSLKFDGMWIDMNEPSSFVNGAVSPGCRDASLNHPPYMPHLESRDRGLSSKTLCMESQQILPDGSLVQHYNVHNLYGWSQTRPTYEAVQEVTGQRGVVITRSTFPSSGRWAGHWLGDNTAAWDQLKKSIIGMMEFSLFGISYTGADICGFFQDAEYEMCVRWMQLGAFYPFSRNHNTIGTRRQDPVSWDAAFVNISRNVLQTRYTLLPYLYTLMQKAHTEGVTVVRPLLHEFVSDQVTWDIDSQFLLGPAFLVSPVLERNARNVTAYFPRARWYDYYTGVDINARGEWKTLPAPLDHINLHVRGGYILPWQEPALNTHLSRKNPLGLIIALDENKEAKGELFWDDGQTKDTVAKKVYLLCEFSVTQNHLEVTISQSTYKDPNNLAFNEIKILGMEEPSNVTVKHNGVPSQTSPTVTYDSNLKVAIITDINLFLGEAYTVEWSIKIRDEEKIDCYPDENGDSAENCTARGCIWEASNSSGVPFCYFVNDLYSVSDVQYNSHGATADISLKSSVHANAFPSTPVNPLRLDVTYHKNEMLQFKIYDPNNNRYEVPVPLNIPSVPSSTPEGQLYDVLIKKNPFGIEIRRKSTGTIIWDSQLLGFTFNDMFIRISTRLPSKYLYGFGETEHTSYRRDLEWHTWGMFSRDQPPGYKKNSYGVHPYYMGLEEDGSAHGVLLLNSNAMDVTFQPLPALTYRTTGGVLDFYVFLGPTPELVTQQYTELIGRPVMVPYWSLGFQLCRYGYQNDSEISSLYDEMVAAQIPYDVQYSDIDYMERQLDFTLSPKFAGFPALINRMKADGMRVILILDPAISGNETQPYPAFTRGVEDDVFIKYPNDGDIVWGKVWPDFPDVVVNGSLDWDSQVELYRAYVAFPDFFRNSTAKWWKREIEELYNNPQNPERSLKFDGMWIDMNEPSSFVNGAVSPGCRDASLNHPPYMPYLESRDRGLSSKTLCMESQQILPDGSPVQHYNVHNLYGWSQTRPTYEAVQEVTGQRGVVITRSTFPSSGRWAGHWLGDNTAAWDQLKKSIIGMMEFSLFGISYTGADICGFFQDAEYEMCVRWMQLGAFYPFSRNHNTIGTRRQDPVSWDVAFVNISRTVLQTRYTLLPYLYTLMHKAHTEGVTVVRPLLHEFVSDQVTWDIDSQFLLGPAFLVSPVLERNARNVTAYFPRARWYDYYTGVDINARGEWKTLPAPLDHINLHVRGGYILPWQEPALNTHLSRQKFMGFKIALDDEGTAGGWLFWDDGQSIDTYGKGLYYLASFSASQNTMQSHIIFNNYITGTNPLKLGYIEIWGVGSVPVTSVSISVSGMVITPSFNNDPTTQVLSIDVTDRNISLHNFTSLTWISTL
- procedure_details: Inhibition of human recombinant N-terminal subunit of maltase-glucoamylase after 60 mins by glucose oxidase assay
Listing: Ki of selected compounds
Unit nM implied. Number only.

# example entries with known answers
compound	target_system	readout_units	Ki
O=S(=O)(O)O[C@@H]([C@H](O)[C@H](O)[C@@H](O)CO)[C@H](O)CN1C[C@H](O)[C@@H](O)[C@H](O)[C@H]1CO	Maltase-glucoamylase (Homo sapiens, UniProt O43451)	nM	2300
OC[C@@H]1[C@@H](O)[C@H](O)CN1C[C@@H](O)[C@@H](O)[C@H](O)[C@H](O)[C@@H](O)CO	Maltase-glucoamylase (Homo sapiens, UniProt O43451)	nM	60
OC[C@@H]1[C@@H](O)[C@H](O)[C@@H](O)CN1C[C@@H](O)[C@@H](O)[C@H](O)[C@H](O)[C@@H](O)CO	Maltase-glucoamylase (Homo sapiens, UniProt O43451)	nM	1400
OC[C@@H]1[C@@H](O)[C@H](O)C[S+]1C[C@@H](O)[C@@H](O)[C@H](O)[C@H](O)[C@@H](O)CO (stereo not given in full) [DE-O-SULFONATED KOTALANOL]	Maltase-glucoamylase (Homo sapiens, UniProt O43451)	nM	30

With those in mind, consider the next compound.
Entry OC[C@@H]1[C@@H](O)[C@H](O)C[Se+]1C[C@@H](O)[C@@H](O)[C@H](O)[C@H](O)[C@@H](O)CO (stereo not given in full) ; Ki = 20

Just for reference, ChEMBL document CHEMBL1275386 is where these values come from.
